tested on: COLO 205 colon; experiment: NCI tumour cell line growth inhibition, 48 h; in the data active means GI50 below about 0.43 µM; inactive means the rest
Give your call using only these classes: active, inactive

The following compounds have reported results that may help.
{"columns": ["Compound", "Group"],
 "data": [
  ["Cc1cc(C)c(C2CNCc3cc4c(cc32)CNCC4c2c(C)cc(C)cc2C)c(C)c1 (stereo not given)", "inactive"],
  ["N#CCCNc1nonc1-c1nc2ccccc2n1CC(=O)c1ccc(NC(=O)[C@@H](N)CCCCN)cc1", "active"],
  ["COc1cc2c(cc1F)C(c1ccccc1Cl)=Nc1c(n[nH]c1C)N2", "active"],
  ["COc1cc(C(=O)Nc2cc(O)c(CC=C(C)C)c(O)c2)cc2c1O[C@]1(C)CC[C@@H](O)C(C)(C)[C@H]1C2", "inactive"]
]}

Consider the record given below.
*Q* Call for entry COc1cccc(Oc2ccccc2NC(=O)CNC(=O)c2cccc3ccccc23)c1 :
*A* active
